These entries and their values trace back to patent US20030129629A1.

# System: 60 cancer cell lines (NCI 60 cancer cell line series)
# assayNotes: NCI-DTP in vitro cancer screen, sulforhodamine B (SRB) growth inhibition, 48 hour exposure
# Assay type: cell-based, human
# experimentalSetup: Melanoma SK-MEL-5 CL10007
Where a name gives a salt, the structure may show the parent alone.
measuredProperty: classification of cell line as Low(1), Medium(2), High(3) sensitivity to compound

What the record says about CC[C@]1(O)C[C@H]2CN(CCc3c([nH]c4ccccc34)[C@@](C(=O)OC)(c3cc4c(cc3OC)N(C=O)[C@H]3[C@@](O)(C(=O)OC)[C@H](OC(C)=O)[C@]5(CC)C=CCN6CC[C@]43[C@@H]65)C2)C1 [Vincristine sulfate] : classification of cell line as Low(1), Medium(2), High(3) sensitivity to compound is 3

What the record says about CS(=O)(=O)OCCCCOS(C)(=O)=O : classification of cell line as Low(1), Medium(2), High(3) sensitivity to compound is 2

What the record says about CC[C@]1(O)C[C@@H]2CN(CCc3c([nH]c4ccccc34)[C@@](C(=O)OC)(c3cc4c(cc3OC)N(C)[C@H]3[C@@](O)(C(=O)OC)[C@H](OC(C)=O)[C@]5(CC)C=CCN6CC[C@]43[C@@H]65)C2)C1 [Vinblastine sulfate] : classification of cell line as Low(1), Medium(2), High(3) sensitivity to compound is 3

---

# Test system: 60 cancer cell lines (NCI 60 cancer cell line series)
# assayNotes: NCI-DTP in vitro cancer screen, sulforhodamine B (SRB) growth inhibition, 48 hour exposure
# Assay type: cell-based, human
# experimentalSetup: NSCLC HOP-92 CL1029
measuredProperty: classification of cell line as Low(1), Medium(2), High(3) sensitivity to compound
Number only, no unit.

Below are worked cases with known answers.
O=C(O)CCCc1ccc(N(CCCl)CCCl)cc1    2
CS(=O)(=O)OCCCCOS(C)(=O)=O    2
N[C@@H](Cc1ccc(N(CCCl)CCCl)cc1)C(=O)O    2
COc1cccc2c1C(=O)c1c(O)c3c(c(O)c1C2=O)C[C@@](O)(C(C)=O)C[C@@H]3O[C@H]1C[C@H](N)[C@H](O)[C@H](C)O1    2
NC(=O)NO [Hydroxyurea]    2

Query compound follows.
classification of cell line as Low(1), Medium(2), High(3) sensitivity to compound for 60 cancer cell lines (NCI 60 cancer cell line series) with input O=C1c2c(O)ccc(O)c2C(=O)c2c(NCCNCCO)ccc(NCCNCCO)c21 equals 3

---

# Test system: 60 cancer cell lines (NCI 60 cancer cell line series)
# assayNotes: NCI-DTP in vitro cancer screen, sulforhodamine B (SRB) growth inhibition, 48 hour exposure
# Assay type: cell-based, human
# experimentalSetup: Melanoma SK-MEL-28 CL10008
Where a name gives a salt, the structure may show the parent alone.
Let's look at some compounds and their measured classification of cell line as Low(1), Medium(2), High(3) sensitivity to compound.
Number only, no unit.

Below are worked cases with known answers.
CC[C@]1(O)C[C@@H]2CN(CCc3c([nH]c4ccccc34)[C@@](C(=O)OC)(c3cc4c(cc3OC)N(C)[C@H]3[C@@](O)(C(=O)OC)[C@H](OC(C)=O)[C@]5(CC)C=CCN6CC[C@]43[C@@H]65)C2)C1 [Vinblastine sulfate]    2
COc1cc([C@@H]2c3cc4c(cc3[C@@H](O[C@@H]3O[C@@H]5CO[C@@H](C)O[C@H]5[C@H](O)[C@H]3O)[C@H]3COC(=O)[C@H]23)OCO4)cc(OC)c1O [Etoposide]    1
N.N.[Cl][Pt][Cl] [cisplatin, cis-Diamminedichloroplatinum (II), reference compound]    2
O=C(O)CCCc1ccc(N(CCCl)CCCl)cc1 [Chlorambucil]    1
CC[C@]1(O)C[C@H]2CN(CCc3c([nH]c4ccccc34)[C@@](C(=O)OC)(c3cc4c(cc3OC)N(C=O)[C@H]3[C@@](O)(C(=O)OC)[C@H](OC(C)=O)[C@]5(CC)C=CCN6CC[C@]43[C@@H]65)C2)C1 [Vincristine sulfate]    1
NC(=O)NO [Hydroxyurea]    1
Sc1ncnc2nc[nH]c12 [6-mercaptopurine]    1
COc1cc([C@@H]2c3cc4c(cc3[C@@H](O[C@@H]3O[C@@H]5CO[C@@H](c6cccs6)O[C@H]5[C@H](O)[C@H]3O)[C@H]3COC(=O)[C@H]23)OCO4)cc(OC)c1O [Teniposide]    2

classification of cell line as Low(1), Medium(2), High(3) sensitivity to compound for 60 cancer cell lines (NCI 60 cancer cell line series) with input COc1cccc2c1C(=O)c1c(O)c3c(c(O)c1C2=O)C[C@@](O)(C(C)=O)C[C@@H]3O[C@H]1C[C@H](N)[C@H](O)[C@H](C)O1 [Daunorubicin] equals 1

classification of cell line as Low(1), Medium(2), High(3) sensitivity to compound for 60 cancer cell lines (NCI 60 cancer cell line series) with input COc1cccc2c1C(=O)c1c(O)c3c(c(O)c1C2=O)C[C@@](O)(C(=O)CO)C[C@@H]3O[C@H]1C[C@H](N)[C@H](O)[C@H](C)O1 [Adriamycin] equals 2

classification of cell line as Low(1), Medium(2), High(3) sensitivity to compound for 60 cancer cell lines (NCI 60 cancer cell line series) with input CS(=O)(=O)OCCCCOS(C)(=O)=O [Busulfan] equals 2

classification of cell line as Low(1), Medium(2), High(3) sensitivity to compound for 60 cancer cell lines (NCI 60 cancer cell line series) with input COc1cccc2c1C(=O)c1c(O)c3c(c(O)c1C2=O)C[C@@](O)(C(=O)CO)C[C@@H]3OC1CC(N)CC(C)O1.Cl (stereo partly shown) [Deoxydoxorubicin] equals 1

classification of cell line as Low(1), Medium(2), High(3) sensitivity to compound for 60 cancer cell lines (NCI 60 cancer cell line series) with input N[C@@H](Cc1ccc(N(CCCl)CCCl)cc1)C(=O)O [Melphalan] equals 2
